// values below are reported IC50
# testedTarget: CDK1/CyclinB (h) (Homo sapiens, UniProt P06493)
# Sequence (P06493 whole entry): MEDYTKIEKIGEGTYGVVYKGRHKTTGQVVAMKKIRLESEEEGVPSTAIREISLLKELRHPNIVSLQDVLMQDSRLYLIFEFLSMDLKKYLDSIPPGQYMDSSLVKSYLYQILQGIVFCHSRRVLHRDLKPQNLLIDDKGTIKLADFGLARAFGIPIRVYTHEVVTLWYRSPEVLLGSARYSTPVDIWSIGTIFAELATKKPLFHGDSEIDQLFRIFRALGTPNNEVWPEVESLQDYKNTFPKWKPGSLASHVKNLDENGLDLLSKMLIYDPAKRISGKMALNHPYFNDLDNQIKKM
# Sequence (P14635 whole entry partner): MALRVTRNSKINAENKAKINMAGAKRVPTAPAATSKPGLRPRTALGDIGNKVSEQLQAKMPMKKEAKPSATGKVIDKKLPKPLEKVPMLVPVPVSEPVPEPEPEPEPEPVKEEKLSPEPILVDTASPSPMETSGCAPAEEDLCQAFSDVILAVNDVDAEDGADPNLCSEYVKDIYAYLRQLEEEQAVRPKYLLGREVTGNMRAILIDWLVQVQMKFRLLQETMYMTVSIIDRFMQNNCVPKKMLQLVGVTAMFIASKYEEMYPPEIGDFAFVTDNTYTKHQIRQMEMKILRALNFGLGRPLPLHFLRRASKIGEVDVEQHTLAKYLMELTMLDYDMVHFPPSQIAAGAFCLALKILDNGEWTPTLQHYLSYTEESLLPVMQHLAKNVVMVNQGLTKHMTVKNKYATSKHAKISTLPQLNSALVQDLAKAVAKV
# assaySummary: CDK1/CyclinB human kinase assay (FRET)
# Assay type: biochemical
# testSettings: read-out: CDK1 pIC50 (converted)
# Procedure: The in vitro inhibition of a panel of kinases was assessed using either the scintillation proximity assay (SPA) as described by Cook, N. D. et al., Advances in Experimental Medicine and Biology (1991), 36; p. 525-528; or the Fluorescence Resonance Energy Transfer (FRET) technology as described by Rodems, S. M. et al., Assay Drug Develop. Technol. (2002), 1; p. 9-19. […]

CN1CCN(c2ccc3cc2CN(C)CCCCC(=O)N(C)CCCNc2ncnc4c2/C(=C/N3)C(=O)N4)CC1 4.68 µM
CN1CC(=O)N(C)CCCCNc2ncnc3c2/C(=C/Nc2cccc(c2)C1)C(=O)N3 > 10 µM
CN1CCNc2ncnc3c2/C(=C/Nc2ccc(Cl)c(c2)OCCCCCCC1=O)C(=O)N3 > 10 µM

# value lookup — system CDK1/CyclinB (h) (Homo sapiens, UniProt P06493), readout IC50, item "COc1cc2cc(c1OC)CN(C)CC(=O)N(C)CCN(C)CCNc1ncnc3c1/C(=C/N2)C(=O)N3"
> 10 µM

Would you mind doing "CN1CCNC(=O)CCCCCOc2cccc(c2)N/C=C2\C(=O)Nc3ncnc1c32" as well?
5.01 µM

Would you mind doing "COc1ccc2cc1CN(C)CCCCC(=O)N(C)CCCNc1ncnc3c1/C(=C/N2)C(=O)N3" as well?
0.603 µM

Follow-up item: "COc1ccc2cc1OCC(=O)N(C)CCCCNc1ncnc3c1/C(=C/N2)C(=O)N3"
> 10 µM

* * *

Listed here are molecules together with their documented PLK4 pIC50.
# testedTarget: PLK4 (h) (Homo sapiens)
# Sequence (O00444 whole entry): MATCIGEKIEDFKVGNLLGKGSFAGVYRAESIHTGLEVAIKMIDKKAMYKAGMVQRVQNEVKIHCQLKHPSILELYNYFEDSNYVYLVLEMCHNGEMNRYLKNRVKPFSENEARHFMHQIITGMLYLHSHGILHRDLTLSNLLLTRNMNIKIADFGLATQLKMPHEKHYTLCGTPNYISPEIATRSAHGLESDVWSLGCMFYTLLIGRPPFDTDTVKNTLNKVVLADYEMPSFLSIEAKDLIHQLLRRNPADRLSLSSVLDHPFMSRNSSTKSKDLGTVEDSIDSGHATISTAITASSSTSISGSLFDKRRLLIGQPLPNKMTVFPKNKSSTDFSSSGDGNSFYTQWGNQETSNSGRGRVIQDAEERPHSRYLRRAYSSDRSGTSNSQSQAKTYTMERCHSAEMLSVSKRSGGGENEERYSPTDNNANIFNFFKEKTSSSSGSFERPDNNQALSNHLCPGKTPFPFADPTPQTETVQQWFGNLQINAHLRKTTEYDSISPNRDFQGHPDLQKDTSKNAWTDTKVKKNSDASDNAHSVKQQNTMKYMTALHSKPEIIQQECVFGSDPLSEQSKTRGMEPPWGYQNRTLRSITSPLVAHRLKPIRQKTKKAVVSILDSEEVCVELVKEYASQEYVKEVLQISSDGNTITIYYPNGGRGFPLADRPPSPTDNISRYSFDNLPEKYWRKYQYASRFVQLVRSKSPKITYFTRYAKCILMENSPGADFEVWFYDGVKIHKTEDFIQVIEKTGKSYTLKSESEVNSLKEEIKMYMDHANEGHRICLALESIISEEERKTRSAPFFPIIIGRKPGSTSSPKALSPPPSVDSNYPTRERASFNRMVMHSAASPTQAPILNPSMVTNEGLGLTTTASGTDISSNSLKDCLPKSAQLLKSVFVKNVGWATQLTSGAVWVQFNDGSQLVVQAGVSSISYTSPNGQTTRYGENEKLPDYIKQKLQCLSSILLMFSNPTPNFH
# assaySummary: PLK-4 human kinase assay (SPA)
# Type: biochemical

For the molecule CC(C)N1CCCC(=O)N2CCN(CC2)c2ncnc3c2C(=CNc2ccc(F)c(c2)C1)C(=O)N3 (mixture of isomers) , what PLK4 pIC50 is on record?
<5

Follow-up item: COc1cc2cc(c1OC)OCC(=O)N(C)CCCCNc1ncnc3c1C(=CN2)C(=O)N3 (mixture of isomers)
<5

Try this molecule next: O=C1Nc2ncnc3c2C1=CNc1cc(ccc1Cl)OCCCCCC(=O)N1CCN3CC1 (mixture of isomers)
<5

Next up: COc1ccc2cc1CN(C)CCCCC(=O)N(C)CCCN(C)c1ncnc3c1C(=CN2)C(=O)N3 (mixture of isomers)
<5

* * *

# testedTarget: PLK4 (h) (Homo sapiens)
# assaySummary: PLK-4 human kinase assay (SPA)
# Type: biochemical
# testSettings: read-out: PLK4 pIC50 (converted)
metric: IC50 (µM)
Response body: numeric value in µM, unit text excluded.

CN1CCCC(=O)N(C)CCNc2ncnc3c2/C(=C/Nc2ccc(N4CCOCC4)c(c2)C1)C(=O)N3 5.13
CN1CCN(c2ccc3cc2CN(C)CCCCC(=O)N(C)CCCNc2ncnc4c2/C(=C/N3)C(=O)N4)CC1 0.851

Shift focus to the following entry.
So what's the measured IC50 for this one? "CN1CCNc2ncnc3c2/C(=C/Nc2cccc(c2)OCCCCCC1=O)C(=O)N3"
3.72

* * *

IC50 values, listed per item
# testedTarget: CDK1/CyclinB (h) (Homo sapiens, UniProt P06493)
# assaySummary: CDK1/CyclinB human kinase assay (FRET)
# Assay type: biochemical
# testSettings: read-out: CDK1 pIC50 (converted)

CN1CCCCC(=O)N(C)CCCN(C)c2ncnc3c2/C(=C/Nc2ccc(Cl)c(c2)C1)C(=O)N3 > 10 µM
CN1CCNc2ncnc3c2/C(=C/Nc2cccc(c2)OCCCCC1=O)C(=O)N3 5.89 µM
COc1cc2cc(c1OC)CN(C)CCCC(=O)N(C)CCCNc1ncnc3c1/C(=C/N2)C(=O)N3 ~10 µM
COc1cc2cc(c1OC)CN(C)CC(=O)N(C)CCCNc1ncnc3c1/C(=C/N2)C(=O)N3 > 10 µM
CN1CCCNc2ncnc3c2/C(=C/Nc2ccc(Cl)c(c2)OCCCCCC1=O)C(=O)N3 > 10 µM
CN1CCNC(=O)CCCCCCOc2cc(ccc2Cl)N/C=C2\C(=O)Nc3ncnc1c32 > 10 µM
CN1CCN(c2ccc3cc2CN(C)CCCC(=O)N(C)CCNc2ncnc4c2/C(=C/N3)C(=O)N4)CC1 > 10 µM
CN1CCCC(=O)N(C)CCNc2ncnc3c2/C(=C/Nc2cccc(c2)C1)C(=O)N3 > 10 µM

Hi! What's the reported IC50 for "COc1ccc2cc1OCCCC(=O)NCCN(C)c1ncnc3c1/C(=C/N2)C(=O)N3" on CDK1/CyclinB (h) (Homo sapiens, UniProt P06493)?
> 10 µM

Would you kindly repeat that for "CN1CCCCC(=O)N(C)CCNc2ncnc3c2/C(=C/Nc2cccc(c2)C1)C(=O)N3" ?
8.91 µM
